Study Target: recombinant human SK (Homo sapiens)
Construct: glutathione-S-transferase (GST) (N); made in house; host or cells: bacteria (pGEX vector)
Protocol Text: Inhibition of recombinant human SK, LC/MS/MS assay
Assay type: biochemical
Experimental Context: 6 μg/ml compound
Classification scheme (inhibition at 6 µg/mL): band A (below 20%), band B (20% to below 70%), band C (70% or more)

In [3]: df
Out[3]:
                                   molecule  category_label
0  CCCC(=O)Oc1ccc(C=CC(=O)Nc2nc(-c3ccc(Cl)cc3)cs2)cc1 [Compound 15]          band C
1  COc1ccc(CCNC(=O)c2nc(-c3ccc(Cl)cc3)cs2)cc1Br [Compound 41]          band B
2  CCCC(=O)Oc1ccc(C=CC(=O)Nc2nc(-c3ccc(Br)cc3)cs2)cc1OC [Compound 20]          band A
3  O=C(NCc1ccncc1)c1nc(-c2ccc(Cl)cc2)cs1 [Compound 34]          band A

Please report the category associated with O=C(NCc1ccc(Oc2ccccc2)cc1)c1nc(-c2ccc(Cl)cc2)cs1 [Compound 54] , nothing else.
band B

Which bin, given its inhibition at 6 µg/mL, does CCCCCCCCCCCCCCCC(=O)Nc1nc(-c2ccc(Cl)cc2)cs1 [Compound 3] occupy?
band C

Which class is correct for the following molecule? O=C(Nc1cc(F)cc(F)c1)c1nc(-c2ccc(Cl)cc2)cs1 [Compound 50]
band B

Could you tell me which band O=C(Cc1ccc2c(c1)OCO2)Nc1nc(-c2ccc(Cl)cc2)cs1 [Compound 22] belongs to?
band B

====

Study Target: recombinant human SK (Homo sapiens, UniProt Q9NYA1)
Construct: glutathione-S-transferase (GST) (N); made in house; host or cells: bacteria (pGEX vector)
Sequence (Q9NYA1 whole entry): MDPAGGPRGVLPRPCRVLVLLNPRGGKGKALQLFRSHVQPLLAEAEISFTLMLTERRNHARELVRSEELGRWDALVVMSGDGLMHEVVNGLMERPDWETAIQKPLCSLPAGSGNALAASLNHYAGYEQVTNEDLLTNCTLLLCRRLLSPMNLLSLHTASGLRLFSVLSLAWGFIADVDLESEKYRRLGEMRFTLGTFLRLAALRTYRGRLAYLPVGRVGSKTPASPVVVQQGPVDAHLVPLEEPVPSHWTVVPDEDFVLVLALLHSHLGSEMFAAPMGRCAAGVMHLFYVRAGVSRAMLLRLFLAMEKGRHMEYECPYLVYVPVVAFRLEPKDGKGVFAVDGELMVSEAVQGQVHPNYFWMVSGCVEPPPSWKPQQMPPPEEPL
Protocol Text: Inhibition of recombinant human SK, LC/MS/MS assay
Type: biochemical
Experimental Context: 6 μg/ml compound
# inhibition at 6 µg/mL annotations
The figure you give is taken to be in %; do not add the unit.

>>> print(df.to_string())
                                   compound  units_text  endpoint_result
0  Clc1ccc(-c2csc(N(Cc3ccccc3)Cc3ccccc3)n2)cc1           %               79
1  O=C(NCc1cccc(OC(F)(F)F)c1)c1nc(-c2ccc(Cl)cc2)cs1           %               59
2  COc1cc(C=CC(=O)Nc2nc(-c3ccc(Cl)cc3)cs2)ccc1OC(C)=O           %              100

inhibition at 6 µg/mL lookup needed for O=C(Nc1nc(-c2ccc(Cl)cc2)cs1)c1ccc(C(F)(F)F)cc1F , thanks.
61

Fill in the blank: the reported inhibition at 6 µg/mL of Fc1ccc(F)c(OCNc2nc(-c3ccc(Cl)cc3)cs2)c1 is ____.
70

Look at this compound and give its reported inhibition at 6 µg/mL. CN1CCCC1CCNC(=O)c1nc(-c2ccc(Cl)cc2)cs1 (stereo not drawn)
42

Name the recorded inhibition at 6 µg/mL for O=C(NCc1cc(F)c(F)c(F)c1)c1nc(-c2ccc(Cl)cc2)cs1 .
79

Fill in: inhibition at 6 µg/mL of CSc1ccc(CNC(=O)c2nc(-c3ccc(Cl)cc3)cs2)cc1 is ___
36

Fill in: inhibition at 6 µg/mL of O=C(NCc1ccc(F)cc1Cl)c1nc(-c2ccc(Cl)cc2)cs1 is ___
75
